Origin of the recorded values: the supplement of paper PMC9112550

Some sequences, each annotated with its measured shrunken log2 fold change.
Test system: Escherichia coli TOP10
test_method_notes: shrunken log2 fold change of peptide-encoding DNA abundance (4.5 h post-induction vs induction); higher = less antimicrobial activity (less host growth inhibition)
measurement_parameters: time post-induction: 4.5 h; library: site-saturation at positions 5, 18, 19, 20

Completed entries (count: 5):
residue_sequence: RRIRLRPPRLPRPRPRPDNSPRP
shrunken log2 fold change: -0.0436
--
residue_sequence: RRIRYRPPRLPRPRPRPNIDPRP
shrunken log2 fold change: -1.61
--
residue_sequence: RRIRLRPPRLPRPRPRPLHQPRP
shrunken log2 fold change: -0.297
--
residue_sequence: RRIRPRPPRLPRPRPRPTIMPRP
shrunken log2 fold change: -0.335
--
residue_sequence: RRIRGRPPRLPRPRPRPFNNPRP
shrunken log2 fold change: -0.206

Report shrunken log2 fold change for RRIRMRPPRLPRPRPRPLVGPRP please.
0.73

Report shrunken log2 fold change for RRIRKRPPRLPRPRPRPIWRPRP please.
0.132

Report shrunken log2 fold change for RRIRTRPPRLPRPRPRPCKEPRP please.
-0.00136

Report shrunken log2 fold change for RRIRSRPPRLPRPRPRPNKNPRP please.
-0.384

* * *

Test system: Escherichia coli TOP10
test_method_notes: shrunken log2 fold change of peptide-encoding DNA abundance (4.5 h post-induction vs induction); higher = less antimicrobial activity (less host growth inhibition)
measurement_parameters: time post-induction: 4.5 h; library: site-saturation at positions 5, 18, 19, 20
Some sequences, each annotated with its measured shrunken log2 fold change.
The response must contain the number and no unit.

Completed entries (count: 3):
residue_sequence: RRIRQRPPRLPRPRPRPNREPRP
quantitative_readout: -0.0709
//
residue_sequence: RRIRDRPPRLPRPRPRPTQYPRP
quantitative_readout: -0.191
//
residue_sequence: RRIRNRPPRLPRPRPRPFKKPRP
quantitative_readout: -0.263

Report shrunken log2 fold change for RRIRMRPPRLPRPRPRPSNEPRP please.
0.287

Report shrunken log2 fold change for RRIRWRPPRLPRPRPRPKLVPRP please.
0.00348

Report shrunken log2 fold change for RRIRCRPPRLPRPRPRPTCLPRP please.
0.00222

Report shrunken log2 fold change for RRIRQRPPRLPRPRPRPVISPRP please.
0.0289

Report shrunken log2 fold change for RRIRMRPPRLPRPRPRPLDIPRP please.
-0.0561

Report shrunken log2 fold change for RRIRKRPPRLPRPRPRPKDHPRP please.
0.308

Report shrunken log2 fold change for RRIRPRPPRLPRPRPRPMGIPRP please.
0.21

Report shrunken log2 fold change for RRIRARPPRLPRPRPRPGMYPRP please.
-0.111

Report shrunken log2 fold change for RRIRCRPPRLPRPRPRPMTWPRP please.
-0.383

Report shrunken log2 fold change for RRIRARPPRLPRPRPRPGRLPRP please.
0.895

Report shrunken log2 fold change for RRIRDRPPRLPRPRPRPLISPRP please.
0.116

Report shrunken log2 fold change for RRIRTRPPRLPRPRPRPPHVPRP please.
0.307

* * *

Test system: Escherichia coli TOP10;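 further: peptides expressed intracellularly from a pBAD plasmid library in pooled LB shake-flask culture, induced with 0.3% L-arabinose, DNA abundance read by NGS, three biological replicates, DESeq2 with apeglm shrinkage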
test_method_notes: shrunken log2 fold change of peptide-encoding DNA abundance (4.5 h post-induction vs induction); higher = less antimicrobial activity (less host growth inhibition)
measurement_parameters: time post-induction: 4.5 h; library: site-saturation at positions 5, 18, 19, 20
measured_quantity: shrunken log2 fold change
The response must contain the number and no unit.

Completed entries (count: 2):
residue_sequence: RRIRMRPPRLPRPRPRPMPVPRP
shrunken log2 fold change: 0.064
--
residue_sequence: RRIRNRPPRLPRPRPRPITSPRP
shrunken log2 fold change: -0.282

Report shrunken log2 fold change for RRIRTRPPRLPRPRPRPHGHPRP please.
-0.136

Report shrunken log2 fold change for RRIRERPPRLPRPRPRPINRPRP please.
-0.017

Report shrunken log2 fold change for RRIRFRPPRLPRPRPRPPSIPRP please.
-0.0341

Report shrunken log2 fold change for RRIRFRPPRLPRPRPRPDWTPRP please.
0.039

Report shrunken log2 fold change for RRIRKRPPRLPRPRPRPEMIPRP please.
0.0131

Report shrunken log2 fold change for RRIRQRPPRLPRPRPRPKKIPRP please.
-0.0759

Report shrunken log2 fold change for RRIRSRPPRLPRPRPRPVSIPRP please.
-0.319

Report shrunken log2 fold change for RRIRKRPPRLPRPRPRPPWEPRP please.
1.23

Report shrunken log2 fold change for RRIRTRPPRLPRPRPRPAHAPRP please.
0.0759

Report shrunken log2 fold change for RRIRERPPRLPRPRPRPDMHPRP please.
-0.0138

Report shrunken log2 fold change for RRIRPRPPRLPRPRPRPCEMPRP please.
2.11

Report shrunken log2 fold change for RRIRLRPPRLPRPRPRPKKPPRP please.
0.0873

Report shrunken log2 fold change for RRIRKRPPRLPRPRPRPLGNPRP please.
0.094
